Observed MIC, system Mycobacterium marinum CAMP 5644.
Give bare numbers, in µM.

1. C[n+]1cc2c(c3ccccc31)Nc1c(OCc3cn(Cc4ccccc4)nn3)cccc1S2 [2f]    65.5
2. C[n+]1cc2c(c3ccccc31)Nc1ccc(OCc3cn(CSc4ccccc4)nn3)cc1S2 [2j]    16.3

Query: Recorded MIC for C[n+]1cc2c(c3ccccc31)Nc1cc(OCc3cn(-c4ccc(Cl)cc4)nn3)ccc1S2 [2n] , please?
Response: 32.7

---

Listed here: compounds with reported MIC for Mycobacterium marinum CAMP 5644.
Numbers only, in µM.

Batch request: MIC for each of the following compounds.
1. C=CCn1cc(COc2ccc3c(c2)Sc2c[n+](C)c4ccccc4c2N3)nn1 [2a]
2. C[n+]1cc2c(c3ccccc31)Nc1ccc(OCc3cn(Cc4ccc([N+](=O)[O-])cc4)nn3)cc1S2 [2g]

Response:
1. 65.5
2. 65.5

Answer for every listed entry: what is its MIC? The entries follow.
1. C=CCn1cc(COc2ccc3c(c2)Nc2c(c[n+](C)c4ccccc24)S3)nn1 [2b]
2. C[n+]1cc2c(c3ccccc31)Nc1cc(OCc3cn(CSc4ccccc4)nn3)ccc1S2 [2k]
3. C[n+]1cc2c(c3ccccc31)Nc1cc(OCc3cn(Cc4ccc([N+](=O)[O-])cc4)nn3)ccc1S2 [2h]
4. C[n+]1cc2c(c3ccccc31)Nc1ccc(OCc3cn(Cc4ccccc4)nn3)cc1S2 [2d]

Response:
[65.5, 32.7, 32.7, 32.7]

Quick one: give me MIC for each item below, same order please.
1. CO[C@H]1/C=C/O[C@@]2(C)Oc3c(C)c(O)c4c(O)c(c(/C=N/N5CCN(C)CC5)c(O)c4c3C2=O)NC(=O)/C(C)=C\C=C\[C@H](C)[C@H](O)[C@@H](C)[C@@H](O)[C@@H](C)[C@H](OC(C)=O)[C@@H]1C [RIF, rifampicin, reference compound]
2. C[n+]1cc2c(c3ccccc31)Nc1ccc(OCc3cn(-c4ccc(Cl)cc4)nn3)cc1S2 [2m]

Response:
2.43
16.3
